target: recombinant CD73 (Homo sapiens (Human)); test: Assay 2: Inhibition of the CD73 enzyme in vitro (0.05 nM CD73, 1 hour 37° C., Malachite Green); type: biochemical; details: 0.05 nM CD73, 50 μM AMP, 1 hour at 37° C.
Sequence (P21589 27-547): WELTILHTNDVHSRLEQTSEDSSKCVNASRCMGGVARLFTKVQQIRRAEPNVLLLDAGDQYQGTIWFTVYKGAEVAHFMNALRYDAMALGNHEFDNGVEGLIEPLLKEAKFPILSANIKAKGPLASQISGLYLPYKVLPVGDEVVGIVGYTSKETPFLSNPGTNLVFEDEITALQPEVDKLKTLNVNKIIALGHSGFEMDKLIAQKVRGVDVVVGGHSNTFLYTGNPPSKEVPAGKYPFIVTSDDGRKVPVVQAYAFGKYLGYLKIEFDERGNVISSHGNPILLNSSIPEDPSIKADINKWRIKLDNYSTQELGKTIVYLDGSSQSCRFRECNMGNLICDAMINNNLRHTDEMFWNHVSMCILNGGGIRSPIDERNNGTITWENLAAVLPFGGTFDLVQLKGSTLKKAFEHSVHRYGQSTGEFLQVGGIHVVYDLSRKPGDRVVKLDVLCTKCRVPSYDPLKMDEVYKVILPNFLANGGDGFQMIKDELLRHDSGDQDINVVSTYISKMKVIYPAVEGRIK
observable: IC50 (nM)
Please respond with the number in nM and leave the unit unwritten.

Please report the recorded IC50 for C#C[C@@]1(O)[C@@H](COC(Cc2ccc(OC(F)(F)F)cc2)(C(=O)O)c2cscn2)O[C@@H](n2cnc3c(NC(C)C)nc(Cl)nc32)[C@@H]1O (stereo partly shown) [Example 174] .
17

Given the entry C#C[C@@]1(O)[C@@H](COC(Cc2ccccc2)(C(=O)O)C(=O)O)O[C@@H](n2cnc3c(N4CC[C@H](CO)C4)nc(Cl)nc32)[C@@H]1O [Example 101] , report its measured IC50.
1

# query: IC50 of entry C#C[C@@]1(O)[C@@H](COC(Cc2ccccc2)(C(=O)O)C(=O)O)O[C@@H](n2cnc3c(NCC4(O)CC4)nc(Cl)nc32)[C@@H]1O [Example 44]
62

Quick one: IC50 for C#C[C@@]1(O)[C@@H](COC(Cc2ccc(-c3cccn(CC)c3=O)cc2)(C(=O)O)C(=O)O)O[C@@H](n2cnc3c(N)nc(Cl)nc32)[C@@H]1O [Example 20] ?
0.2
